Could you please report measured STS inhibition (%) for the items listed next?
- system name: STS (Homo sapiens, UniProt P08842)
- Construct: expressed in transfected cells; host or cells: HEK-293 cells stably transfected with STS (G418 selection), obtained from Dr. Van Luu-The; used as freeze-thaw homogenate
- assay remarks: STS inhibition of libraries 1-EO to 4-EO, homogenate of STS transfected HEK-293 cells
- Type: biochemical
- measurement setup: 1 μM; mean ± SEM, triplicate
Respond numerically; units are % and should not be typed.

Q: What STS inhibition (%) appears in the records for this compound with STS (Homo sapiens, UniProt P08842)? `CCN(Cc1ccccc1)Cc1cccc(C(=O)N2CCc3ccc(OS(N)(=O)=O)cc3C2)c1`
Ans: 69.0

Q: What STS inhibition (%) appears in the records for this compound with STS (Homo sapiens, UniProt P08842)? `CN(CCCN1CCCCC1)Cc1ccc(C(=O)N2CCc3ccc(OS(N)(=O)=O)cc3C2)cc1`
Ans: 40.7

Q: What STS inhibition (%) appears in the records for this compound with STS (Homo sapiens, UniProt P08842)? `CCCN(Cc1ccccc1)Cc1ccc(C(=O)N2CCc3ccc(OS(N)(=O)=O)cc3C2)cc1`
Ans: 94.3

Q: What STS inhibition (%) appears in the records for this compound with STS (Homo sapiens, UniProt P08842)? `CCCN(CCC)Cc1cccc(C(=O)N2CCc3ccc(OS(N)(=O)=O)cc3C2)c1`
Ans: 54.8

Q: What STS inhibition (%) appears in the records for this compound with STS (Homo sapiens, UniProt P08842)? `CN(C)CCN(Cc1ccccc1)Cc1cccc(C(=O)N2CCc3ccc(OS(N)(=O)=O)cc3C2)c1`
Ans: 28.6

Q: What STS inhibition (%) appears in the records for this compound with STS (Homo sapiens, UniProt P08842)? `NS(=O)(=O)Oc1ccc2c(c1)CN(C(=O)c1ccc(CN3CCCCC3)cc1)CC2`
Ans: 38.3

Q: What STS inhibition (%) appears in the records for this compound with STS (Homo sapiens, UniProt P08842)? `CN(C)CCCN(Cc1ccccc1)Cc1ccc(C(=O)N2CCc3ccc(OS(N)(=O)=O)cc3C2)cc1`
Ans: 61.6

Q: What STS inhibition (%) appears in the records for this compound with STS (Homo sapiens, UniProt P08842)? `CN1CCN(Cc2ccc(C(=O)N3CCc4ccc(OS(N)(=O)=O)cc4C3)cc2)CC1`
Ans: 23.3

Q: What STS inhibition (%) appears in the records for this compound with STS (Homo sapiens, UniProt P08842)? `NS(=O)(=O)Oc1ccc2c(c1)CN(C(=O)c1cccc(CN3CCSCC3)c1)CC2`
Ans: 39.6

Q: What STS inhibition (%) appears in the records for this compound with STS (Homo sapiens, UniProt P08842)? `CCCN(Cc1ccccc1)Cc1cccc(C(=O)N2CCc3ccc(OS(N)(=O)=O)cc3C2)c1`
Ans: 67.4

Q: What STS inhibition (%) appears in the records for this compound with STS (Homo sapiens, UniProt P08842)? `NS(=O)(=O)Oc1ccc2c(c1)CN(C(=O)c1cccc(CN3CCOCC3)c1)CC2`
Ans: 20.9

* * *

- system name: STS (Homo sapiens, UniProt P08842)
- Construct: expressed in transfected cells; host or cells: HEK-293 cells stably transfected with STS (G418 selection), obtained from Dr. Van Luu-The; used as freeze-thaw homogenate
- Sequence (P08842 22-583): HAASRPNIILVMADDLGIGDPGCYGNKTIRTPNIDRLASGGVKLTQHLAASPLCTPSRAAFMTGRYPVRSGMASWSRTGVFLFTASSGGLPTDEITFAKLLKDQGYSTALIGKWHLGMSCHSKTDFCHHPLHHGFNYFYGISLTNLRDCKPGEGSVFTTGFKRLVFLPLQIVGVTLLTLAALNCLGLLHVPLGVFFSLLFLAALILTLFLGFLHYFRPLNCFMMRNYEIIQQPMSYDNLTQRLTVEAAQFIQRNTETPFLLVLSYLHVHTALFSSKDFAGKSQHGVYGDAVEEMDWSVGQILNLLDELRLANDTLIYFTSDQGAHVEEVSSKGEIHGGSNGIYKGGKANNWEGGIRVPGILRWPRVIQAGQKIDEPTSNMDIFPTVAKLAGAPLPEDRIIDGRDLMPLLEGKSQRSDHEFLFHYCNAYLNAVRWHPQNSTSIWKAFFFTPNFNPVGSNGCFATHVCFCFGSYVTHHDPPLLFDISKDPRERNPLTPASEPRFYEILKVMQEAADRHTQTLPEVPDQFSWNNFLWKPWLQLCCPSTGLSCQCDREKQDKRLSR
- assay remarks: STS inhibition of libraries 1-EO to 4-EO, homogenate of STS transfected HEK-293 cells
- Format: biochemical
- measurement setup: 0.1 μM; mean ± SEM, triplicate
assay readout: STS inhibition (%)
Respond numerically; units are % and should not be typed.

Q: Return reported STS inhibition (%); argument: `NS(=O)(=O)Oc1ccc2c(c1)CN(C(=O)c1ccc(CN3CCN(c4ncccn4)CC3)cc1)CC2`
Ans: 14.7

Q: Return reported STS inhibition (%); argument: `NS(=O)(=O)Oc1ccc2c(c1)CN(C(=O)c1ccc(CN3CCN(Cc4ccccc4)CC3)cc1)CC2`
Ans: 20.8

Q: Return reported STS inhibition (%); argument: `NS(=O)(=O)Oc1ccc2c(c1)CN(C(=O)c1ccc(CN3CCOCC3)cc1)CC2`
Ans: 10.9

Q: Return reported STS inhibition (%); argument: `NS(=O)(=O)Oc1ccc2c(c1)CN(C(=O)c1ccc(CN(CCCO)Cc3ccccc3)cc1)CC2`
Ans: 5.7

Q: Return reported STS inhibition (%); argument: `CCN(Cc1ccc(C(=O)N2CCc3ccc(OS(N)(=O)=O)cc3C2)cc1)Cc1cccnc1`
Ans: 35.7

Q: Return reported STS inhibition (%); argument: `NS(=O)(=O)Oc1ccc2c(c1)CN(C(=O)c1cccc(CN3CCC(Cc4ccccc4)CC3)c1)CC2`
Ans: 1.4

Q: Return reported STS inhibition (%); argument: `CCN(Cc1ccc(F)cc1)Cc1ccc(C(=O)N2CCc3ccc(OS(N)(=O)=O)cc3C2)cc1`
Ans: 69.1

Q: Return reported STS inhibition (%); argument: `CCN(Cc1ccc(Br)cc1)Cc1cccc(C(=O)N2CCc3ccc(OS(N)(=O)=O)cc3C2)c1`
Ans: 24.2

Q: Return reported STS inhibition (%); argument: `NS(=O)(=O)Oc1ccc2c(c1)CN(C(=O)c1cccc(CN3CCSCC3)c1)CC2`
Ans: 2.3

Q: Return reported STS inhibition (%); argument: `CN(CCCN1CCCCC1)Cc1ccc(C(=O)N2CCc3ccc(OS(N)(=O)=O)cc3C2)cc1`
Ans: 17.4

* * *

Could you please report measured STS inhibition (%) for the items listed next?
- system name: STS (Homo sapiens)
- Construct: expressed in transfected cells; host or cells: HEK-293 cells stably transfected with STS (G418 selection), obtained from Dr. Van Luu-The; used as freeze-thaw homogenate
- assay remarks: STS inhibition of libraries 1-EO to 4-EO, homogenate of STS transfected HEK-293 cells
- Type: biochemical
- measurement setup: 1 μM; mean ± SEM, triplicate

Q: Return reported STS inhibition (%); argument: `NS(=O)(=O)Oc1ccc2c(c1)CN(C(=O)c1cccc(CN3CCc4ccccc4C3)c1)CC2`
Ans: 50.2 ± 1.9%

Q: Return reported STS inhibition (%); argument: `NS(=O)(=O)Oc1ccc2c(c1)CN(C(=O)c1ccc(CN3CCC(Cc4ccccc4)CC3)cc1)CC2`
Ans: 81.3 ± 0.5%

Q: Return reported STS inhibition (%); argument: `NS(=O)(=O)Oc1ccc2c(c1)CN(C(=O)c1ccc(CN(CCO)Cc3ccccc3)cc1)CC2`
Ans: 78.0 ± 1.1%

Q: Return reported STS inhibition (%); argument: `NS(=O)(=O)Oc1ccc2c(c1)CN(C(=O)c1ccc(CN3CCC(N4CCCCC4)CC3)cc1)CC2`
Ans: 53.7 ± 4.7%

Q: Return reported STS inhibition (%); argument: `NS(=O)(=O)Oc1ccc2c(c1)CN(C(=O)c1cccc(CN3CCCCC3)c1)CC2`
Ans: 11.9 ± 2.6%

Q: Return reported STS inhibition (%); argument: `CCN(Cc1ccncc1)Cc1cccc(C(=O)N2CCc3ccc(OS(N)(=O)=O)cc3C2)c1`
Ans: 52.8 ± 1.3%

Q: Return reported STS inhibition (%); argument: `CN(CCCN1CCCCC1)Cc1cccc(C(=O)N2CCc3ccc(OS(N)(=O)=O)cc3C2)c1`
Ans: 30.6 ± 6.9%

Q: Return reported STS inhibition (%); argument: `CN(CCN1CCCCC1)Cc1ccc(C(=O)N2CCc3ccc(OS(N)(=O)=O)cc3C2)cc1`
Ans: 26.8 ± 13.5%

Q: Return reported STS inhibition (%); argument: `NS(=O)(=O)Oc1ccc2c(c1)CN(C(=O)c1ccc(CN3CCOCC3)cc1)CC2`
Ans: 50.6 ± 1.2%

Q: Return reported STS inhibition (%); argument: `CN(C)CCN(CCN(C)C)Cc1ccc(C(=O)N2CCc3ccc(OS(N)(=O)=O)cc3C2)cc1`
Ans: 15.9 ± 21.5%

Q: Return reported STS inhibition (%); argument: `NS(=O)(=O)Oc1ccc2c(c1)CN(C(=O)c1cccc(CN(CCO)Cc3ccccc3)c1)CC2`
Ans: 32.4 ± 6.3%

Q: Return reported STS inhibition (%); argument: `CCN(Cc1cccc(C(=O)N2CCc3ccc(OS(N)(=O)=O)cc3C2)c1)Cc1ccccn1`
Ans: 19.9 ± 12.6%

Q: Return reported STS inhibition (%); argument: `NS(=O)(=O)Oc1ccc2c(c1)CN(C(=O)c1cccc(CN3CCC(Cc4ccccc4)CC3)c1)CC2`
Ans: 41.9 ± 2.7%

Q: Return reported STS inhibition (%); argument: `CCN(Cc1ccc(C(=O)N2CCc3ccc(OS(N)(=O)=O)cc3C2)cc1)Cc1cccnc1`
Ans: 85.2 ± 1.7%

Q: Return reported STS inhibition (%); argument: `NS(=O)(=O)Oc1ccc2c(c1)CN(C(=O)c1cccc(CN3CCN(c4ncccn4)CC3)c1)CC2`
Ans: 24.4 ± 0.4%

Q: Return reported STS inhibition (%); argument: `NS(=O)(=O)Oc1ccc2c(c1)CN(C(=O)c1ccc(CN3CCN(Cc4ccccc4)CC3)cc1)CC2`
Ans: 75.8 ± 1.6%

Q: Return reported STS inhibition (%); argument: `CN1CCN(Cc2cccc(C(=O)N3CCc4ccc(OS(N)(=O)=O)cc4C3)c2)CC1`
Ans: 12.6 ± 2.3%

Q: Return reported STS inhibition (%); argument: `NS(=O)(=O)Oc1ccc2c(c1)CN(C(=O)c1ccc(CN(Cc3ccccc3)Cc3ccco3)cc1)CC2`
Ans: 98.2 ± 0.4%

Q: Return reported STS inhibition (%); argument: `CN(C)CCN(Cc1ccccc1)Cc1ccc(C(=O)N2CCc3ccc(OS(N)(=O)=O)cc3C2)cc1`
Ans: 57.8 ± 3.4%

Q: Return reported STS inhibition (%); argument: `CN(CCN1CCCCC1)Cc1cccc(C(=O)N2CCc3ccc(OS(N)(=O)=O)cc3C2)c1`
Ans: 30.8 ± 6.4%

Q: Return reported STS inhibition (%); argument: `NS(=O)(=O)Oc1ccc2c(c1)CN(C(=O)c1cccc(CN(CCCO)Cc3ccccc3)c1)CC2`
Ans: 37.3 ± 7.0%

Q: Return reported STS inhibition (%); argument: `CCN(Cc1ccccc1)Cc1ccc(C(=O)N2CCc3ccc(OS(N)(=O)=O)cc3C2)cc1`
Ans: 83.6 ± 0.2%
